Biological target: human TRPA1 (Homo sapiens (Human), UniProt O75762)
Sequence (O75762 whole entry): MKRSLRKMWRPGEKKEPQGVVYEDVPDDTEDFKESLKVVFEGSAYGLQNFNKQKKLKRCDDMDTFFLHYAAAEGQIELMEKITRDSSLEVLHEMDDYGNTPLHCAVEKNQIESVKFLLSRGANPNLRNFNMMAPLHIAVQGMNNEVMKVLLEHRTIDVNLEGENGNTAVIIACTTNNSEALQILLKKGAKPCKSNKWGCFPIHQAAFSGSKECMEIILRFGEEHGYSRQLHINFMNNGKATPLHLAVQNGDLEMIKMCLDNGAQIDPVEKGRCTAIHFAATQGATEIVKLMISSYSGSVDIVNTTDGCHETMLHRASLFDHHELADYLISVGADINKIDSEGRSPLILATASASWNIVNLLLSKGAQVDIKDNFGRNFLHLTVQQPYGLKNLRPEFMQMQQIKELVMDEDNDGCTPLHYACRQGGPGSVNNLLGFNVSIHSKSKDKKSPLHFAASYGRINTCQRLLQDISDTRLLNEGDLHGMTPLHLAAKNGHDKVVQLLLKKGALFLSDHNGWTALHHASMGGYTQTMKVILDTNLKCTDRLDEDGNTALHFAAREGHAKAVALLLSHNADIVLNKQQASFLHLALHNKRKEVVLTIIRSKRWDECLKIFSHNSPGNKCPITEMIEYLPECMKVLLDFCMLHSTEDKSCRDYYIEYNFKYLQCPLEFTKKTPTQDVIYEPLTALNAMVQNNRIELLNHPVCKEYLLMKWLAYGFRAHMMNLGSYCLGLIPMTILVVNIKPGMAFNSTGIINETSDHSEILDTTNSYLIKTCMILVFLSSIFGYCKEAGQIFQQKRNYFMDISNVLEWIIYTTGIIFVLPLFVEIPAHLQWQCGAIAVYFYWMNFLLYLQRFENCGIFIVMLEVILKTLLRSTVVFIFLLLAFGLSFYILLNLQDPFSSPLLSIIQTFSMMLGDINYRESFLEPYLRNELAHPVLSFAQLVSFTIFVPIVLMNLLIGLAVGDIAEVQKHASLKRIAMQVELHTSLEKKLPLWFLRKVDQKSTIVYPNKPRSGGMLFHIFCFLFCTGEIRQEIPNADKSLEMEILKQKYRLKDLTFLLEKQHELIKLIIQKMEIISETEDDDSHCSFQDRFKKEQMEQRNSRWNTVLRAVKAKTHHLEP
Test: FLIPR Tetra calcium influx assay, block of cinnamaldehyde-induced calcium influx in CHO cells expressing TRPA1 (human)
Format: cell-based
Conditions: 20 min compound incubation, 75 uM cinnamaldehyde (~EC80), Hill coefficient fixed to 1.5, read-out: hTRPA1 AUC IC50
pIC50: −log10 of the molar value.
Property: pIC50

Here is how some compounds turned out for pIC50.
Compound	pIC50
N#Cc1cnc(CNC(=O)[C@@H]2C[C@@H](F)CN2S(=O)(=O)c2ccc(F)cc2)cc1-c1ccc(C(F)(F)F)nc1	6.75
O=C(NCc1cc(-c2ccc(C(F)(F)F)nc2)ncn1)[C@@H]1CCN1S(=O)(=O)c1ccc(F)cc1	6.57
C[C@H]1[C@H](F)C[C@@H](C(=O)NCc2ccnc(-c3cnc(C(F)(F)F)nc3)c2)N1S(=O)(=O)c1ccc(F)cc1	7.82
O=C(NCc1cc(-c2ccc(OC(F)(F)F)cc2)ncn1)[C@@H]1C[C@@H](F)CN1S(=O)(=O)c1ccc(F)cc1	7.68
O=C(NCc1cc(-c2cnc(C(F)(F)F)nc2)ncc1F)[C@@H]1C[C@@H](F)CN1S(=O)(=O)c1ccc(F)cc1	7.59

1 = Cc1cnc(-c2cnc(C(F)(F)F)nc2)cc1CNC(=O)[C@@H]1C[C@@H](F)CN1S(=O)(=O)c1ccc(F)cc1
2 = O=C(NCc1cc(-c2ccc(C(F)(F)F)nn2)ccc1F)[C@@H]1C[C@@H](F)CN1S(=O)(=O)c1ccc(F)cc1
3 = COc1nn(-c2ccc(C(F)(F)F)nc2)cc1CNC(=O)[C@]1(C)C[C@@H](F)CN1S(=O)(=O)c1ccc(F)cc1
4 = C[C@@]1(C(=O)NCc2cc(-c3ccc(C(F)(F)F)nc3)c(F)cn2)C[C@@H](F)CN1S(=O)(=O)c1ccc(F)cc1
hey, can you rank those compounds up there by pIC50? biggest number first please Your task in answering is to list the labels in the requested order. 3, 4, 2, 1

a = O=C(NCc1cn(-c2ccc(C(F)(F)F)nc2)nc1Cl)[C@@H]1C[C@@H](F)CN1S(=O)(=O)c1ccc(F)cc1
b = O=C(NCc1cc(F)cc(-c2ccc(C(F)F)nc2)c1)[C@@H]1C[C@@H](F)CN1S(=O)(=O)c1ccc(F)cc1
c = O=C(NCc1cc(-c2ccc(C(F)(F)F)cc2)ncn1)[C@@H]1C[C@@H](F)CN1S(=O)(=O)c1ccc(F)c(F)c1
Rank the 3 compounds: largest pIC50 first, smallest last. // respond by listing labels in the order requested b, c, a
(b: 7.54, c: 7.34, a: 7.11)

P = O=C(NCc1cc(N2CCC3(CC2)CC3)c(F)cn1)[C@@H]1C[C@@H](F)CN1S(=O)(=O)c1ccc(F)cc1
Q = CNc1nc(C(F)(F)F)ccc1-c1cc(CNC(=O)[C@@H]2C[C@@H](F)CN2S(=O)(=O)c2ccc(F)cc2)ccn1
R = O=C(NCc1ccnc(-c2ccc(C(F)(F)F)cc2O)c1)[C@@H]1C[C@@H](F)CN1S(=O)(=O)c1ccc(F)cc1
S = O=C(NCc1cc(F)cc(-c2cnc(C(F)(F)F)cn2)c1)[C@@H]1C[C@@H](F)CN1S(=O)(=O)c1ccc(F)cc1
T = O=C(NCc1cc(-c2ccc(C(F)(F)F)nc2)ccn1)[C@@H]1C[C@@H](F)CN1S(=O)(=O)c1ccc(F)cc1
Sort the compounds on pIC50; start with the lowest figure. # list labels per requested ordering T, P, Q, S, R

* * *

Assay: in vivo rat pharmacokinetic (PK) studies, plasma clearance
Settings: plasma, read-out: Rat PK Clp
Property: clearance (mL/min/kg)

The cases that follow already have their clearance on record.
O=C(NCc1cc(-c2ccc(C(F)(F)F)nc2)ncn1)[C@@H]1CCCN1S(=O)(=O)c1ccc(F)cc1 98
COc1nn(-c2ccc(C(F)(F)F)nc2)cc1CNC(=O)[C@@H]1C[C@@H](F)CN1S(=O)(=O)c1ccc(F)cc1 13
O=C(NCc1cc(-c2ccc(C(F)(F)F)nc2)ncn1)[C@@H]1CC(F)(F)CN1S(=O)(=O)c1ccc(F)cc1 30
C[C@@]1(C(=O)NCc2cc(-c3ccc(C(F)(F)F)nc3)ncn2)C[C@@H](F)CN1S(=O)(=O)c1ccc(F)cc1 15

1 = N#C[C@@H]1C[C@@H](C(=O)NCc2cc(-c3ccc(C(F)(F)F)cc3)ncn2)N(S(=O)(=O)c2ccc(F)cc2)C1
2 = C[C@@]1(F)C[C@@H](C(=O)NCc2cc(-c3ccc(C(F)(F)F)nc3)ncn2)N(S(=O)(=O)c2ccc(F)cc2)C1
Compare the recorded clearance of 1 and 2 ; state which is larger. Output the label that corresponds to your choice. 2
(2: 11.3 mL/min/kg, 1: 7.6 mL/min/kg)

1 = O=C(NCc1cc(-c2cnc(C(F)(F)F)nc2)c(F)cn1)[C@@H]1C[C@@H](F)CN1S(=O)(=O)c1ccc(F)cc1
2 = O=C(NCc1cc(F)cc(-c2cnc(C(F)F)cn2)c1)[C@@H]1C[C@@H](F)CN1S(=O)(=O)c1ccc(F)cc1
Which numeric clearance is bigger, that of 1 or that of 2 ? Pick one and reply with its label. 2

a = O=C(NCc1cc(-c2ccc(C(F)(F)F)nc2)nc(-c2ccc(C(F)(F)F)nc2)c1)[C@@H]1C[C@@H](F)CN1S(=O)(=O)c1ccc(F)cc1
b = O=C(NCc1cc(-c2ccc(OC(F)F)cc2)ncn1)[C@@H]1C[C@@H](F)CN1S(=O)(=O)c1ccc(F)cc1
Could you tell me which of a and b has the lower clearance reading? API: response body contains the label of the selected item. a

* * *

Biological target: human TRPA1 (Homo sapiens (Human))
Test: FLIPR Tetra calcium influx assay, block of cinnamaldehyde-induced calcium influx in CHO cells expressing TRPA1 (human)
Format: cell-based
Settings: 20 min compound incubation, 75 uM cinnamaldehyde (~EC80), Hill coefficient fixed to 1.5, read-out: hTRPA1 AUC IC50
Procedure: IC50 Determinations of Exemplified Compounds. IC50s (effective concentration) of compounds on the human and rat TRPA1 channels were determined using a FLIPR Tetra instrument. CHO cells expressing TRPA1 were plated into 384-well plates, incubated overnight at 37C, and loaded with BD calcium indicator dye for 1 hr at 37° C. followed by 15 minutes. at room temperature. The assay buffer was Hank's Balanced Salt Solution (HBSS) containing 20 mM HEPES (pH readjusted to 7.4) along with 0.02% BSA. […]
pIC50: −log10 of the molar value.
Property: pIC50

Worked examples follow.
Compound	Numeric Result
O=C(NCc1cc(F)nc(-c2ccc(C(F)(F)F)nc2)c1)[C@@H]1C[C@@H](F)CN1S(=O)(=O)c1ccc(F)cc1 [Example 119]	7.28
C[C@@H]1C[C@@H](C(=O)NCc2cc(-c3ccc(C(F)(F)F)nc3)ncn2)N1S(=O)(=O)c1ccc(F)cc1 [Example 200]	6.48
O=C(NCc1cn(-c2ccc(C(F)(F)F)cc2)nc1Cl)[C@@H]1C[C@@H](F)CN1S(=O)(=O)c1ccc(F)cc1 [Example 137]	7.11
O=C(NCc1cc(-c2ccc(C(F)(F)F)nc2)ncn1)[C@@H]1C[C@]2(CN1S(=O)(=O)c1ccc(F)cc1)CC2(F)F (single isomer, unassigned) [Example 124]	6.95
O=C(NCc1cc(-c2ccc(C(F)F)c(F)c2)ncn1)[C@@H]1C[C@@H](F)CN1S(=O)(=O)c1ccc(F)cc1 [Example 59]	7.54
O=C(NCc1cc(F)cc(-c2ccc(OC(F)F)nc2)c1)[C@@H]1C[C@@H](F)CN1S(=O)(=O)c1ccc(F)cc1 [Example 76]	7.41

a = O=C(NCc1cc(N2CCC(F)(F)CC2)c(F)cn1)[C@@H]1C[C@@H](F)CN1S(=O)(=O)c1ccc(F)cc1 [Example 128]
b = O=C(NCc1cc(-c2cnc(C(F)(F)F)nc2)ncc1Cl)[C@@H]1C[C@@H](F)CN1S(=O)(=O)c1ccc(F)cc1 [Example 184]
Hey, between a and b which has a smaller measured pIC50? Returns: label corresponding to the selected item. a
(a: 6.39, b: 8.00)

P = O=C(NCc1cc(-c2ccc(C(F)(F)F)cc2)ncn1)[C@@H]1C[C@H]2COC[C@H]2N1S(=O)(=O)c1ccc(F)cc1 (single isomer, unassigned) [Example 99]
Q = O=C(NCc1cc(-c2ccc(C(F)(F)F)nc2)ncc1F)[C@@H]1C[C@@H](F)CN1S(=O)(=O)c1ccc(F)cc1 [Example 141]
Looking only at measured pIC50, which entry is lower, P or Q ? Give the label under which the chosen entry appears. P
(P: 6.37, Q: 7.17)

* * *

Molecular target: human TRPA1 (Homo sapiens (Human), UniProt O75762)
Assay: FLIPR Tetra calcium influx assay, block of cinnamaldehyde-induced calcium influx in CHO cells expressing TRPA1 (human)
Format: cell-based
Settings: 20 min compound incubation, 75 uM cinnamaldehyde (~EC80), Hill coefficient fixed to 1.5, read-out: hTRPA1 AUC IC50
Property: IC50 (µM)

Here is how some compounds turned out for IC50.
C[C@H]1CC[C@@H](C(=O)NCc2cc(-c3ccc(C(F)(F)F)nc3)ncn2)N1S(=O)(=O)c1ccc(F)cc1 0.005
COc1nc(CNC(=O)[C@@H]2C[C@@H](F)CN2S(=O)(=O)c2ccc(F)cc2)cc(-c2ccc(C(F)(F)F)nc2)n1 0.097

a = O=C(NCc1cc(-c2ccc(C(F)(F)F)cc2)ccc1F)[C@@H]1C[C@@H](F)CN1S(=O)(=O)c1ccc(F)cc1
b = O=C(NCc1cc(-c2cnc(C(F)(F)F)nc2)ccc1F)[C@@H]1C[C@@H](F)CN1S(=O)(=O)c1ccc(F)cc1
c = Cc1nc(CNC(=O)[C@@H]2C[C@@H](F)CN2S(=O)(=O)c2ccc(F)cc2)cc(-c2ccc(C(F)(F)F)nc2)n1
d = O=C(NCc1cc(-c2cnc(C(F)(F)F)nc2)ccc1F)[C@]12C[C@H]1CCN2S(=O)(=O)c1ccc(F)cc1
e = O=C(NCc1ccnc(-c2cnc(C(F)(F)F)nc2)c1)[C@@H]1[C@H]2C[C@H]2CN1S(=O)(=O)c1ccc(F)cc1
Please give the order of these compounds when sorted by IC50, largest value leading. Please list the labels in the order you were asked to rank them. c, e, d, b, a
